The measurements presented in this section are drawn from patent US20140348834A1.

# systemTested: T1, human IL-17A/F (human, UniProt Q16552 24-155; Q96PD4 31-163)
# T1 construct: Heterodimer of IL-17A and IL-17F, purified recombinant; also called HuIL-17A/F; Hu IL-17A/F
# T1 sequence (Q16552 24-155 limits assumed, chain 1 of 2): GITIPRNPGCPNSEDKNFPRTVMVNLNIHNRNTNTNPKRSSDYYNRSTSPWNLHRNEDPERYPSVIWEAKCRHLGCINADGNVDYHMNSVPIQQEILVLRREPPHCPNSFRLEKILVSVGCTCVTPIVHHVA
# T1 sequence (Q96PD4 31-163 limits assumed, chain 2 of 2): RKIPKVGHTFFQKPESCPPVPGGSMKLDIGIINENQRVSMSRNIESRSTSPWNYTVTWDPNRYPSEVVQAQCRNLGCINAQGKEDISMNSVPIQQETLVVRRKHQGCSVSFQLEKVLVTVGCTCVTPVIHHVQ
# procedureDetails: SPR Biacore, captured binder
Readings of kon for the listed binders
readoutType: kon (M⁻¹ s⁻¹)

INSERT INTO measurements (binder, readouttype, value) VALUES
  ('IL17-B6-16 (antibody, V domains shown) VH: EVQLVQSGAEVKMPGSSLKISCKASGGSFRGYGISWVRQAPGQGLEWMGGITPFFGWADYAQKFQGRVTITADESTTTAYMELSGLTSDDTAVYYCARDPNEFWNGYYDTHHFDYWGQGTTVTVSS VL: EIVLTQSPDFQSVTPKEKVTITCRASQDIGSALHWYQQKPDQSPKLLIKYASHSVSGVPSRFSGSGSGTDFTLTINGLEAEDAGTYYCHQSDILPHTFGPGTKVDIK', 'kon', '4e+06'),
  ('IL17-TN-K7-B6 (antibody, V domains shown, Fully human antibody) VH: EVQLVQSGAEVKKPGESLKISCKASGGSFRSYGISWVRQAPGQGLEWMGGITPILGTANYAQKFQGRVTITADESTTTAYMELSGLTSDDTAVYYCAREPNDFWNGYYTTHHFDYWGQGTPVTVSS VL: DVVMTQSPDFQSVTPKEKVTITCRASQNIGSALHWYQQKPDQSPKLLIKYASQSISGVPSRFSGSGSGTDFTLTINGLEAEDAGTYYCHQSTSLPHTFGQGTKLDIKR', 'kon', 7980);
